Assay: Oral bioavailability in Sprague-Dawley rat at 10 mg/kg measured for 1 to 1440 mins by LC-MS/MS analysis
Format: ADME, organism-based
Conditions: in vivo, time 1-1440 min
valueKind: bioavailability (%)
Write down the numeric answer in % and omit the unit.

• Nc1nonc1-c1nc2ccccc2n1CC(=O)Nc1ccc(CCN2CCOCC2)cc1 = 48.2

Please turn your attention to the following entry.
Q) Item "N#Cc1cc(Br)cc(NC(=O)Cn2c(-c3nonc3N)nc3ccccc32)c1" has what recorded bioavailability?
A) 23.6

====

Test: AUC (0 to t) in plasma of ICR mouse at 10 mg/kg, po measured for 10 to 480 mins by spectroscopy
Format: ADME, organism-based
Settings: time 10-480 min
valueKind: AUC(0-t) (ng·h/mL)
Write down the numeric answer in ng·h/mL and omit the unit.

Q) Item "Nc1nonc1-c1nc2ccccc2n1CC(=O)Nc1ccc(CCN2CCOCC2)cc1" has what recorded AUC(0-t)?
A) 826

====

Assay: Cytotoxicity against human L02 cells assessed as survival rate at 100 uM incubated for 24 hrs by MTT assay relative to control
Type: toxicity, cell-based
Details: read-out: Survival
valueKind: viability at 24 h, 100 µM (%)
Write down the numeric answer in % and omit the unit.

Below, 2 molecules whose answers are already recorded.
* CN1CCN(c2cccc(NC(=O)Cn3c(-c4nonc4N)nc4ccccc43)c2)CC1 | 102
* Nc1nonc1-c1nc2ccccc2n1CC(=O)Nc1ccc(CCN2CCOCC2)cc1 | 87.1

Please turn your attention to the following entry.
Q) Item "Nc1nonc1-c1nc2ccccc2n1CC(=O)Nc1ccc(CN2CCOCC2)cc1" has what recorded viability at 24 h, 100 µM?
A) 114

====

Test: Cmax in Sprague-Dawley rat at 10 mg/kg, iv measured for 1 to 1440 mins by LC-MS/MS analysis
Type: ADME, organism-based
Conditions: in vivo, time 1-1440 min
valueKind: Cmax (µg/mL)
Write down the numeric answer in µg/mL and omit the unit.

Q) Item "Nc1nonc1-c1nc2ccccc2n1CC(=O)Nc1ccc(CCN2CCOCC2)cc1" has what recorded Cmax?
A) 4.61

====

Test: Cmax in plasma of ICR mouse at 10 mg/kg, po measured for 10 to 480 mins by spectroscopy
Type: ADME, organism-based
Conditions: time 10-480 min
valueKind: Cmax

Q) Item "Nc1nonc1-c1nc2ccccc2n1CC(=O)Nc1ccc(CCN2CCOCC2)cc1" has what recorded Cmax?
A) 1390 ng/mL

====

Assay: Metabolic stability in human liver microsomes assessed as compound remaining at 2 uM measured after 12.8 mins by LC-MS/MS analysis
Format: ADME, Microsome
Conditions: read-out: Activity
valueKind: remaining at 0.2133 h, 2 µM (%)
Write down the numeric answer in % and omit the unit.

Q) Item "C[C@]12CC[C@H]3[C@@H](CCC4=CC(=O)CC[C@@]43C)[C@@H]1CC[C@@H]2O" has what recorded remaining at 0.2133 h, 2 µM?
A) 50

====

Assay: MRT (infinity) in Sprague-Dawley rat at 10 mg/kg, po measured for 1 to 1440 mins by LC-MS/MS analysis
Format: ADME, organism-based
Details: in vivo, time 1-1440 min
Quick reference for MRT inf among some molecules

* N#Cc1cc(Br)cc(NC(=O)Cn2c(-c3nonc3N)nc3ccccc32)c1 | 7.37 h

Please turn your attention to the following entry.
Q) Item "Nc1nonc1-c1nc2ccccc2n1CC(=O)Nc1ccc(CCN2CCOCC2)cc1" has what recorded MRT inf?
A) 9.67 h
